B1: TPR 5TU (parent)
chain: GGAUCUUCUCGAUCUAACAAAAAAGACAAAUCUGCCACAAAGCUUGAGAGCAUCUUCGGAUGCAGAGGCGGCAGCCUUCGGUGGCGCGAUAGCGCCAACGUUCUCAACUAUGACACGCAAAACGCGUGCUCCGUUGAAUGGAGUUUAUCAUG

variants of: B1; assay: polymerase ribozyme fitness, log enrichment relative to wild type (log ratio); higher = more active; in vitro selection for triplet polymerase activity
Variants at the floor of the assay were thinned out.
This section presents variants with their documented polymerase ribozyme fitness (log ratio) values.

Illustrative cases are given below, each with its answer.
sequence.change: C87U U90C U134A A138U G143A
value: ≤ -4.2
//
sequence.change: A20C C85U G86U C93A A119U A121G
value: -1.77
//
sequence.change: C18U A37U U144A
value: -1.92
//
sequence.change: A37C G86A
value: -1.34

stdin: Requested field: polymerase ribozyme fitness (log ratio). Item: U6C U61A G68C G84A G88U A121G G124A
stdout: ≤ -4.2

stdin: Also A49C A89U G92C U104G U127G A142G ?
stdout: ≤ -4.2

stdin: Next variant: C8A A49G C76A C93A C103G C105A U127C
stdout: ≤ -4.2

stdin: Next: C75U A122G G124A C149U
stdout: -1.15

stdin: What about this variant? G83C C85G C103A
stdout: ≤ -4.2
